# System: OVCAR-8 ovarian
# method_summary: NCI-60 one-dose screen, 48 h (100 = growth as untreated, 0 = no growth, -100 = all killed)
# experimental_conditions: 10 µM unless noted
About 83,000 compounds went through this panel and 20% of them were active in at least one assay; those are over-represented in the sample as a whole.
Parameter threshold = 40%. Response is 1 when growth meets or exceeds it, else -1.

QUERY: Does COc1cc(NC(=O)COc2cc(C)nc3ccc(OC)cc23)cc(OC)c1 have a reported growth of at least 40%?
RESULT: 1

QUERY: Does CCOC(=O)C1=C(C)n2nc(CC#N)c(C#N)c2NC1c1ccc(Cl)cc1 (stereo not given) have a reported growth of at least 40%?
RESULT: 1

QUERY: Does Cn1c2ccccc2c2c(OC(=O)c3ccccc3)c3c(nc21)-c1ccccc1C3 have a reported growth of at least 40%?
RESULT: 1

QUERY: Does CCc1c(C(=O)N[C@@H](C(=O)OCc2ccccc2)C(C)O)[nH]c2ccc(Cl)cc12 (stereo not given in full) have a reported growth of at least 40%?
RESULT: 1

QUERY: Does O=C(CCCC(=O)Nc1ccc(-n2nnc3cc(Cl)c(Cl)cc32)cc1)Nc1ccc(-n2nnc3cc(Cl)c(Cl)cc32)cc1 have a reported growth of at least 40%?
RESULT: -1

QUERY: Does O=c1cc(/C=N\Nc2nc(-c3ccc(Cl)cc3Cl)cs2)c2cc(Cl)ccc2o1 have a reported growth of at least 40%?
RESULT: 1

QUERY: Does Nc1ccc(C(=O)Nc2cccc(C(=O)Nc3ccc4c(O)c(N=Nc5ccc(N=Nc6ccc(S(=O)(=O)O)cc6)cc5)c(S(=O)(=O)O)cc4c3)c2)cc1 have a reported growth of at least 40%?
RESULT: 1

QUERY: Does CC[C@]12C=CCN3CC[C@@]4(c5ccc(OC)cc5N(C)[C@H]4[C@@](O)(C(=O)OC)[C@@H]1OC(=O)CCC(=O)O[C@H]1CC[C@H]4[C@@H]5CC[C@H]6CC(=O)CC[C@]6(C)[C@H]5CC[C@]14C)[C@@H]32 have a reported growth of at least 40%?
RESULT: -1

QUERY: Does O=C(/C(=C/c1ccc([N+](=O)[O-])cc1)SCc1ccc(F)cc1)c1ccc(Cl)cc1 have a reported growth of at least 40%?
RESULT: 1

QUERY: Does C=C1C(=O)O[C@H]2[C@H]1CC/C(COC(=O)CCC(=O)OC/C1=C/CC[C@@]3(C)O[C@H]3[C@H]3OC(=O)C(=C)[C@@H]3CC1)=C\CC[C@@]1(C)O[C@@H]21 have a reported growth of at least 40%?
RESULT: -1

QUERY: Does COc1cc2c(cc1OC)C(Sc1ccc(Cl)cc1)c1c(nc(N)c(C#N)c1N)O2 (stereo not given) have a reported growth of at least 40%?
RESULT: -1

QUERY: Does O=C(Nc1cc(Nc2ncccc2-c2ncnc3nc[nH]c23)ccc1F)c1cc(C(F)(F)F)cc(C(F)(F)F)c1 have a reported growth of at least 40%?
RESULT: -1

QUERY: Does COc1cccc(C(=O)OCCn2nc3c4c(cccc42)C(=O)c2ccccc2-3)c1O have a reported growth of at least 40%?
RESULT: 1

QUERY: Does N#Cc1c(-c2ccc(F)cc2)nc(N/N=C/c2cccc(O)c2)nc1N1CCOCC1 have a reported growth of at least 40%?
RESULT: 1

QUERY: Does C[C@]12CC[C@@H]3c4ccc(O)cc4CC[C@H]3[C@@H]1C[C@H](O)C2 have a reported growth of at least 40%?
RESULT: 1

QUERY: Does COc1ccc(C2CC(c3ccc(OC)cc3O)=NN2c2ccc(S(N)(=O)=O)cc2)cc1 (stereo not given) have a reported growth of at least 40%?
RESULT: 1

QUERY: Does C=C1C(=O)O[C@H]2[C@H]1CC/C(COC(=O)NCc1nc3ccccc3[nH]1)=C\CC[C@@]1(C)O[C@@H]21 have a reported growth of at least 40%?
RESULT: 1

QUERY: Does Cc1cccc(NC(=O)c2sc3nc4c(cc3c2N)CN(Cc2ccccc2)CC4)c1C have a reported growth of at least 40%?
RESULT: -1

QUERY: Does CCCn1c2cc(OCc3cn(-c4ccc(Br)cc4)nn3)ccc2c2ccnc(C)c21 have a reported growth of at least 40%?
RESULT: 1

QUERY: Does c1ccc(-c2n(Cc3ccc4ccccc4n3)cc[n+]2Cc2ccc3ccccc3c2)cc1 have a reported growth of at least 40%?
RESULT: -1

QUERY: Does N#C/C(=C/c1ccc(O)c([N+](=O)[O-])c1)c1nc(-c2ccc([N+](=O)[O-])cc2)cs1 have a reported growth of at least 40%?
RESULT: 1

QUERY: Does O=CN1N=C(c2ccc(Cl)cc2)CC1c1cccc(Nc2ccnc3cc(C(F)(F)F)ccc23)c1 (stereo not given) have a reported growth of at least 40%?
RESULT: 1

QUERY: Does COc1cc(NC(=O)Nc2cnc(Nc3ccc(N4CCOCC4)cc3)nc2Oc2ccc(C(F)(F)F)cc2)cc(OC)c1 have a reported growth of at least 40%?
RESULT: 1

QUERY: Does CC1(C)Cc2c(Br)c(Br)c(Br)c(OCC(O)CN3CCOCC3)c2O1 (stereo not given) have a reported growth of at least 40%?
RESULT: 1

QUERY: Does O=[N+]([O-])c1cccc(CN(Cc2cccc([N+](=O)[O-])c2O)c2ccccc2)c1O have a reported growth of at least 40%?
RESULT: 1

QUERY: Does C=C1C(=O)O[C@H]2[C@H]1CC/C(COC(=O)c1cccnc1N)=C\CC[C@@]1(C)O[C@@H]21 have a reported growth of at least 40%?
RESULT: -1

QUERY: Does COc1ccc2[nH]c(=O)c(/C=C/C(=O)c3ccccc3OC)cc2c1 have a reported growth of at least 40%?
RESULT: -1

QUERY: Does CCOCc1nc2ccccc2c(=O)[nH]1 have a reported growth of at least 40%?
RESULT: 1

QUERY: Does O=c1nc(-c2ccccc2)c2cc(-c3ccc(N4CCCC4)nc3)ccc2[nH]1 have a reported growth of at least 40%?
RESULT: 1

QUERY: Does CCN1CCC[C@H]1c1cc(O)c2c(c1OC)C[C@H]1C[C@H]3[C@H](N)C(=O)C(C(N)=O)=C(O)[C@@]3(O)C(=O)C1=C2O have a reported growth of at least 40%?
RESULT: -1

QUERY: Does COc1ccc2[nH]c(-c3ccccc3)c(C=C(C#N)C#N)c2c1 have a reported growth of at least 40%?
RESULT: 1

QUERY: Does N#CCNc1ccc(C(=O)O)cc1 have a reported growth of at least 40%?
RESULT: 1

QUERY: Does Nc1c(C(=O)Nc2ccccc2)sc2nc3c(cc12)CN(C(=O)OCc1ccccc1)CC3 have a reported growth of at least 40%?
RESULT: 1

QUERY: Does Nc1cc(N)c(S(=O)(=O)O)cc1N=Nc1cc([N+](=O)[O-])ccc1O have a reported growth of at least 40%?
RESULT: 1

QUERY: Does COc1ccc(C2C(c3ccccc3)C(=O)N2c2cc(OC)c(OC)c(OC)c2)cc1I (stereo not given) have a reported growth of at least 40%?
RESULT: -1

* * *

# Tested on: SR leukemia
# method_summary: NCI-60 one-dose screen, 48 h (100 = growth as untreated, 0 = no growth, -100 = all killed)
# experimental_conditions: 10 µM unless noted
The panel holds about 83,000 compounds, 20% with a hit somewhere; the sample as a whole holds those more often.
So I've got a bunch of compounds here, and I need their growth values.
// note: answer is a bare numeric in %

QUERY: For COc1ccc2[nH]c(=O)c(/C=C/C(=O)c3ccccc3OC)cc2c1 , what is its reported growth?
RESULT: 2.69

QUERY: For N#Cc1ccc(C2C3=C(CCCC3=O)OC3=C2C(=O)c2ccccc2C3=O)cc1 (centres undefined) , what is its reported growth?
RESULT: 60.9

QUERY: For Cc1nc2sc(C(=O)Nc3cccc4ccccc34)c(N)c2cc1C(C)O (centres undefined) , what is its reported growth?
RESULT: 12.3

QUERY: For COc1ccc(C2N(c3cc(OC)c(OC)c(OC)c3)C(=O)C2(F)F)cc1F (centres undefined) , what is its reported growth?
RESULT: 18.7

QUERY: For CN(C)[C@@H]1C(=O)C(C(N)=O)=C(O)[C@@]2(O)C(=O)C3=C(O)c4c(O)cc(CN5CCc6ccccc6C5)c(Cl)c4C[C@H]3C[C@@H]12 , what is its reported growth?
RESULT: -50.7

QUERY: For Cc1c(C(=O)Nc2nc3ccccc3[nH]2)cnn1-c1ccccn1 , what is its reported growth?
RESULT: 83.8

QUERY: For COc1cc(-c2cn(-c3ccc(Cl)c(Cl)c3)c(=O)[nH]2)cc(OC)c1OC , what is its reported growth?
RESULT: 31

QUERY: For O=C1[C@@H](OS(=O)(=O)CC(F)(F)F)[C@H](c2ccc(F)cn2)N1c1cc2c3ccccc3ccc2c2ccccc12 , what is its reported growth?
RESULT: 4.47

QUERY: For CC(C)NS(=O)(=O)c1cccc(-c2ccc3c4c(n(CCCN(C)C)c(=O)c3c2)-c2ccccc2C4=O)c1 , what is its reported growth?
RESULT: -27
